# Tested on: Enterobacter cloacae
Positions of bridges follow the written chain, without caps; N, C: chain ends. Non-standard residues stand in square brackets, D forms with d. Residues, ends and D or L forms follow the SMILES beside them. *: point of attachment. X6 = O=C(c1ccc(F)c(Cl)c1)*; Dab = NCC[C@H](N)C(=O)O; Abu = CC[C@H](N)C(=O)O; Dap = NC[C@H](N)C(=O)O; X34 = Cc1ccccc1CC(=O)*
attribute.measured: Minimum inhibitory concentration, Ec FADDI-EC001 (mg/L)
Answer format: numeric, mg/L implied, no suffix.

Entry CC[C@@H]1NC(=O)[C@@H](CC(C)C)NC(=O)[C@H](CCN)NC(=O)[C@@H](NC(=O)[C@H](CN)NC(=O)[C@@H](NC(=O)[C@H](CCN)NC(=O)c2ccc(F)c(Cl)c2)[C@@H](C)O)CCNC(=O)[C@H]([C@@H](C)O)NC(=O)[C@H](CCN)NC(=O)[C@H](CCN)NC1=O [Compound 110] (X6-[Dab]T[Dap][Dab][Dab][dL][Abu][Dab][Dab]T; lactam 4-C) — recorded Minimum inhibitory concentration, Ec FADDI-EC001 = 1

Entry CC[C@@H]1NC(=O)[C@@H](CC(C)C)NC(=O)[C@H](CCN)NC(=O)[C@@H](NC(=O)[C@H](CN)NC(=O)[C@@H](NC(=O)[C@H](CCN)NC(=O)Cc2ccccc2C)[C@@H](C)O)CCNC(=O)[C@H]([C@@H](C)O)NC(=O)[C@H](CCN)NC(=O)[C@H](CCN)NC1=O [Compound 76] (X34-[Dab]T[Dap][Dab][Dab][dL][Abu][Dab][Dab]T; lactam 4-C) — recorded Minimum inhibitory concentration, Ec FADDI-EC001 = 0.25
